In what follows, each item is paired with its pIC50 for Pim 3 (Homo sapiens, UniProt Q86V86).
Scale: negative log10 of molar concentration, which is what pIC50 denotes.

Consider the reported pIC50 for these compounds:
Compound | Endpoint label | Recorded result
C[C@H]1C[C@@H](c2ccncc2NC(=O)c2ccc(F)c(-c3c(F)cc(OC4CCOC4)cc3F)n2)C[C@@H](N)[C@@H]1O (stereo in doubt) [Example 69] | pIC50 | 9.05
C[C@@H]1C[C@H](N)C[C@H](c2ccncc2NC(=O)c2ccc(F)c(-c3c(F)cc(OC(F)F)cc3F)n2)C1 | pIC50 | 9.00
C[C@H]1C[C@@H](c2ccncc2NC(=O)c2ccc(F)c(-c3c(F)cc(COC4CCOCC4)cc3F)n2)C[C@@H](N)[C@@H]1O | pIC50 | 8.62
CCOC(C)(C)c1cc(F)c(-c2nc(C(=O)Nc3cnccc3N3C[C@@H](N)[C@H](O)[C@@H](C)C3)ccc2F)c(F)c1 | pIC50 | 9.26
COCCOc1ccc(F)c(-c2nc(C(=O)Nc3cnccc3N3C[C@@H](N)[C@H](O)[C@@H](C)C3)ccc2F)c1F | pIC50 | 9.46

Request: Enter reported pIC50 observed with Pim 3 (Homo sapiens, UniProt Q86V86) for C[C@H]1C[C@@H](c2ccncc2NC(=O)c2ccc(F)c(-c3c(F)cc4c(c3F)OCC[C@]4(C)O)n2)C[C@@H](N)[C@@H]1O
Result: 7.80

Request: Param readout= pIC50; system= Pim 3 (Homo sapiens, UniProt Q86V86); entry= C[C@@H]1C[C@H](N)C[C@H](c2ccncc2NC(=O)c2ccc(F)c(-c3c(F)cc(C4(O)CC4)cc3F)n2)C1 ; returns value.
Result: 9.11

Request: Form: Entry = COCc1cc(F)c(-c2nc(C(=O)Nc3cnccc3N3C[C@@H](N)[C@H](O)[C@@H](C)C3)ccc2F)c(F)c1 | System = Pim 3 (Homo sapiens, UniProt Q86V86) | pIC50 = ____
Result: 9.33

Request: Short answer please: pIC50, Pim 3 (Homo sapiens, UniProt Q86V86), entry C[C@H]1CN(c2ccncc2NC(=O)c2ccc(F)c(-c3c(F)cc(OC4CCOCC4)cc3F)n2)C[C@@H](N)[C@@H]1O
Result: 9.70

Request: Param readout= pIC50; system= Pim 3 (Homo sapiens, UniProt Q86V86); entry= C[C@@H]1C[C@H](N)C[C@H](c2ccncc2NC(=O)c2ccc(F)c(-c3c(F)cc4c(c3F)OCC[C@]4(C)O)n2)C1 ; returns value.
Result: 8.96

Request: Look up pIC50 with Pim 3 (Homo sapiens, UniProt Q86V86) for this compound: C[C@H]1CN(c2ccncc2NC(=O)c2ccc(F)c(-c3c(F)cc(OCC4CCOCC4)cc3F)n2)C[C@@H](N)[C@@H]1O
Result: 9.72

Request: # returns recorded pIC50 (system: Pim 3 (Homo sapiens, UniProt Q86V86)) for C[C@H]1CN(c2ccncc2NC(=O)c2ccc(F)c(-c3c(F)cc(O[C@H]4CCCOC4)cc3F)n2)C[C@@H](N)[C@@H]1O
Result: 9.89

Request: Enter reported pIC50 observed with Pim 3 (Homo sapiens, UniProt Q86V86) for COC(C)(C)c1cc(F)c(-c2nc(C(=O)Nc3cnccc3[C@@H]3C[C@H](C)C[C@H](N)C3)c(N)cc2F)c(F)c1
Result: 9.14
